pKi: −log10 of the molar value.
Let's go through some pKi measurements on Sodium-dependent serotonin transporter (Homo sapiens, UniProt P31645) together.
Sequence (P31645 whole entry): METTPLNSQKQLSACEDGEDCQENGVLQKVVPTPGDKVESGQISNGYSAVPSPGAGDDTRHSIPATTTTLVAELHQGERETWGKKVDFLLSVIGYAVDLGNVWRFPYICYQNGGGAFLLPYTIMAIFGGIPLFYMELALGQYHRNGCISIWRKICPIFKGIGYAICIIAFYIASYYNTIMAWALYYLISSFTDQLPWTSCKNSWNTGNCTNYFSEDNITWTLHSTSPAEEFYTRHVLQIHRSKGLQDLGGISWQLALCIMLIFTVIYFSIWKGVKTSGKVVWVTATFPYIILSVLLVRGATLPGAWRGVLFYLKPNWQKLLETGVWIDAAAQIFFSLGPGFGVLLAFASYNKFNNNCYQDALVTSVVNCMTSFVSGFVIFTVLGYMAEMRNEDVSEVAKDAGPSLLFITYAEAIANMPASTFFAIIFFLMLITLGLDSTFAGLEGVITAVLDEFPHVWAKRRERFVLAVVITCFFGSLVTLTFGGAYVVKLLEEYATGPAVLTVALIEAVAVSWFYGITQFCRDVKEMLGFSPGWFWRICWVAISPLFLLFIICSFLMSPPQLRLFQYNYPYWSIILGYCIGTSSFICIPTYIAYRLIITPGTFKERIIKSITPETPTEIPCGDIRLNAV
measurement label: pKi

[[record]]
molecule = "Clc1ccc([C@@H]2C[C@@H](NCc3ccccc3)c3ccccc32)cc1Cl (relative stereo)"
measurement_label = "pKi"
measurement = 6.42

[[record]]
molecule = "CCN[C@H]1C[C@@H](c2ccc(Cl)c(Cl)c2)c2ccccc21"
measurement_label = "pKi"
measurement = 8.33

[[record]]
molecule = "CC(C)(C)N[C@H]1C[C@@H](c2ccc(Cl)c(Cl)c2)c2ccccc21 (relative stereo)"
measurement_label = "pKi"
measurement = 5.77

[[record]]
molecule = "CCCN(C)[C@H]1C[C@@H](c2ccc(Cl)c(Cl)c2)c2ccccc21 (relative stereo)"
measurement_label = "pKi"
measurement = 6.70

[[record]]
molecule = "CN([C@@H]1C[C@@H](c2ccc(Cl)c(Cl)c2)c2ccccc21)C(C)(C)C (relative stereo)"
measurement_label = "pKi"
measurement = 5.33


src = ChEMBL document CHEMBL1133565
